test: PK of test compounds in beagle; format: in vivo, beagle dog; conditions: dog, plasma, iv, 1 mg/kg, AUC in 0 hour to infinite time
experimental_endpoint: AUC(0-inf)

Lookup: Fill in: AUC(0-inf) of CCOC(=O)C1=C(CN2CCO[C@H](CCC(=O)O)C2)NC(c2nccs2)=N[C@H]1c1ccc(F)cc1Cl [Example 9] is ___
Found: 11300 ng·h/mL

Lookup: Fill in: AUC(0-inf) of CCOC(=O)C1=C(CN2CCO[C@H](CCC(=O)O)C2)NC(c2nccs2)=N[C@H]1c1ccc(F)cc1Br [Example 2] is ___
Found: 8700 ng·h/mL

Lookup: Fill in: AUC(0-inf) of COC(=O)C1=C(CN2CCO[C@H](CCC(=O)O)C2)NC(c2nccs2)=N[C@H]1c1ccc(F)cc1Br [Example 11] is ___
Found: 10900 ng·h/mL

Lookup: Fill in: AUC(0-inf) of COC(=O)C1=C(CN2CCO[C@H](CCC(=O)O)C2)NC(c2nccs2)=N[C@H]1c1ccc(Cl)cc1Cl [Example 13] is ___
Found: 11600 ng·h/mL

Lookup: Fill in: AUC(0-inf) of COC(=O)C1=C(CN2CCO[C@H](CCC(=O)O)C2)NC(c2nccs2)=N[C@H]1c1ccc(F)cc1Cl [Example 10] is ___
Found: 9710 ng·h/mL

Lookup: Fill in: AUC(0-inf) of CCOC(=O)C1=C(CN2CCO[C@H](CCC(=O)O)C2)NC(c2nccs2)=N[C@H]1c1ccc(Cl)cc1Cl [Example 12] is ___
Found: 7970 ng·h/mL

---

test: PK of test compounds in beagle; assay type: in vivo, beagle dog; details: po, 2.5 mg/kg, absolute bioavailability
Rule: y for F not less than 90%, n for anything less.

Lookup: Can COC(=O)C1=C(CN2CCO[C@H](CCC(=O)O)C2)NC(c2nccs2)=N[C@H]1c1ccc(Cl)cc1Cl be said to have F at or above 90%?
Found: y

Lookup: Can CCOC(=O)C1=C(CN2CCO[C@H](CCC(=O)O)C2)NC(c2nccs2)=N[C@H]1c1ccc(Cl)cc1Cl be said to have F at or above 90%?
Found: n

Lookup: Can COC(=O)C1=C(CN2CCO[C@H](CCC(=O)O)C2)NC(c2nccs2)=N[C@H]1c1ccc(F)cc1Cl be said to have F at or above 90%?
Found: y

---

Provide the recorded Cmax for the entries that follow.
experiment: PK of test compounds in beagle; type: in vivo, beagle dog; settings: dog, plasma, iv, 1 mg/kg
Provide the reading as a plain figure in ng/mL.

Lookup: Fill in: Cmax of CCOC(=O)C1=C(CN2CCO[C@H](CCC(=O)O)C2)NC(c2nccs2)=N[C@H]1c1ccc(F)cc1Br [Example 2] is ___
Found: 2050

Lookup: Fill in: Cmax of COC(=O)C1=C(CN2CCO[C@H](CCC(=O)O)C2)NC(c2nccs2)=N[C@H]1c1ccc(Cl)cc1Cl [Example 13] is ___
Found: 2920

Lookup: Fill in: Cmax of CCOC(=O)C1=C(CN2CCO[C@H](CCC(=O)O)C2)NC(c2nccs2)=N[C@H]1c1ccc(Cl)cc1Cl [Example 12] is ___
Found: 2230

Lookup: Fill in: Cmax of CCOC(=O)C1=C(CN2CCO[C@H](CCC(=O)O)C2)NC(c2nccs2)=N[C@H]1c1ccc(F)cc1Cl [Example 9] is ___
Found: 2570

Lookup: Fill in: Cmax of COC(=O)C1=C(CN2CCO[C@H](CCC(=O)O)C2)NC(c2nccs2)=N[C@H]1c1ccc(F)cc1Br [Example 11] is ___
Found: 3400

Lookup: Fill in: Cmax of COC(=O)C1=C(CN2CCO[C@H](CCC(=O)O)C2)NC(c2nccs2)=N[C@H]1c1ccc(F)cc1Cl [Example 10] is ___
Found: 2430

Values compiled from patent US9771358B2.
